System: CCRF-CEM
Assay: Ratio of IC50 for human taxol-resistant CCRF-CEM cells to IC50 for human CCRF-CEM cells
Format: functional
PROPERTY: Ratio IC50
Just the number, please, no unit attached.

Example results:
MOLECULE: O=C(Nc1ccc(N(CCCl)CCCl)cc1)Nc1ccc2ncnc(Nc3cccc(Br)c3)c2c1
Ratio IC50: 4.82

MOLECULE: O=C(Nc1ccc(N(CCCl)CCCl)cc1)Nc1ccc2ncnc(Nc3ccc(Cl)c(C(F)(F)F)c3)c2c1
Ratio IC50: 1.12

MOLECULE: O=C(Nc1ccc(N(CCCl)CCCl)cc1)Nc1ccc2ncnc(Nc3ccc(F)c(Br)c3)c2c1
Ratio IC50: 1.64

MOLECULE: CC(=O)O[C@H]1C(=O)[C@@]2(C)[C@H]([C@H](OC(=O)c3ccccc3)[C@]3(O)C[C@H](OC(=O)[C@H](O)[C@@H](NC(=O)c4ccccc4)c4ccccc4)C(C)=C1C3(C)C)[C@]1(OC(C)=O)CO[C@@H]1C[C@@H]2O
Ratio IC50: 143

MOLECULE: O=C(Nc1ccc(N(CCCl)CCCl)cc1)Nc1ccc2ncnc(Nc3cccc(C(F)(F)F)c3)c2c1
Ratio IC50: 1.15

MOLECULE: O=C(Nc1ccc(N(CCCl)CCCl)cc1)Nc1ccc2ncnc(Nc3ccc(Br)cc3)c2c1
Ratio IC50: 1.89

Alright, here's another compound for you.
// lookup Ratio IC50 | system=CCRF-CEM | key= O=C(Nc1ccc(N(CCCl)CCCl)cc1)Nc1ccc2ncnc(Nc3ccc(Cl)c(Cl)c3)c2c1
2.16
